The values you see were collected from ChEMBL document CHEMBL4373693.

# log10 of IC50 annotations
target-or-system: DNA gyrase subunit A (Staphylococcus aureus, UniProt P20831)
Sequence (P20831 whole entry): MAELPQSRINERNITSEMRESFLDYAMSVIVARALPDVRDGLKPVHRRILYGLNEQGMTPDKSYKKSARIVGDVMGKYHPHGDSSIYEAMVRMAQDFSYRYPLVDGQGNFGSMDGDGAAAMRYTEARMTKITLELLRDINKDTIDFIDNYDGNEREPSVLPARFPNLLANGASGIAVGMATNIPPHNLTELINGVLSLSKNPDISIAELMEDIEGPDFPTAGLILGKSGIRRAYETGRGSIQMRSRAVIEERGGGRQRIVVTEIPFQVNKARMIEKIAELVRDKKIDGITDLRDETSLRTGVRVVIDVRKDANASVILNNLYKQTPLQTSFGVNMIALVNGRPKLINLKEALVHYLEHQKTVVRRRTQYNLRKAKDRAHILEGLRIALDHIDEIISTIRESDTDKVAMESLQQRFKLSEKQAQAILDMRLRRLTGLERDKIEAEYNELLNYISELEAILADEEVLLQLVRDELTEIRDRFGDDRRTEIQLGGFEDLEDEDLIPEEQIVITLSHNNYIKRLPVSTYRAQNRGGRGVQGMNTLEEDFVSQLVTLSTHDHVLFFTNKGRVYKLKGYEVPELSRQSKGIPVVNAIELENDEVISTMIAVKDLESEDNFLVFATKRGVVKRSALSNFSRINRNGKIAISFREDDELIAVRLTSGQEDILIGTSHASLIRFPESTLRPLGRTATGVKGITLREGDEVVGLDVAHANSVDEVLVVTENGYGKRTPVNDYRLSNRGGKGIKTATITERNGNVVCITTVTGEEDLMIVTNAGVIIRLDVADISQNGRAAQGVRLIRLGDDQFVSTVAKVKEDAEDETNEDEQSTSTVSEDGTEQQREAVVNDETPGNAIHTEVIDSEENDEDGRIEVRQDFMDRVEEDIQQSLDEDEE
measurement-notes: Inhibition of Staphylococcus aureus ATCC 29213 DNA gyrase A assessed as reduction in enzyme-mediated supercoiling of relaxed pBR322 DNA by ethidium bromide staining based gel electrophoresis method
Give log10 of IC50, with IC50 taken in µM.

# count of solved cases: 10
# compound, log10 of IC50
data = [
    ("O=C(CCN1CCN(c2nccc3ccc(F)cc23)CC1)Nc1cc(=O)oc2ccccc12", 1.02),
    ("O=c1cc(OCCCN2CCN(c3nccc4ccccc34)CC2)c2ccccc2o1", 1.45),
    ("O=c1cc(NCCCN2CCN(c3nccc4ccc(F)cc34)CC2)c2c(o1)CCSC2", 0.11),
    ("CN(CCCN1CCN(c2nccc3ccccc23)CC1)c1cc(=O)oc2ccccc12", 1.08),
    ("O=c1cc(NCCCN2CCN(c3nccc4ccccc34)CC2)c2cc(F)ccc2o1", 0.59),
    ("COc1ccc2ccnc(N3CCN(CCCNc4cc(=O)oc5ccccc45)CC3)c2c1", 0.04),
    ("O=c1cc(NC2CCN(CCCc3ccccc3)CC2)c2cc(Cl)ccc2o1", 1.44),
    ("O=c1cc(NC[C@H](O)CN2CCN(c3nccc4ccc(F)cc34)CC2)c2ccccc2o1", 0.18),
    ("O=C(NCCCN1CCN(c2nccc3ccccc23)CC1)c1ccccc1", 1.30),
    ("O=c1cc(NCCN2CCN(c3nccc4ccccc34)CC2)c2ccccc2o1", 0.84),
]

Task item: Given the compound `O=c1cc(NCCCN2CCN(c3nc(F)cc4ccccc34)CC2)c2ccccc2o1` , what is its reported log10 of IC50?
Reply: 0.41

Task item: // lookup log10 of IC50 for `O=c1cc(NCCCN2CCN(c3nccc4ccccc34)CC2)c2ccccc2o1`
Reply: 1.15

Task item: GET /values?readout=log10 of IC50&item= `CN(C)c1ccc2ccnc(N3CCN(CCCNc4cc(=O)oc5ccccc45)CC3)c2c1`
Reply: 0.66

Task item: Which log10 of IC50 is reported for this compound? `COc1cc2ccccc2c(N2CCN(CCCNc3cc(=O)oc4ccccc34)CC2)n1`
Reply: 1.64

Task item: Which log10 of IC50 value belongs to O=c1nc(NCC(O)CN2CCN(c3nc(F)cc4ccc(F)cc34)CC2)c2cc(F)ccc2o1 (racemic) ?
Reply: -1.70

Task item: # input compound: `Cc1cccc2oc(=O)cc(NCCCN3CCN(c4nccc5ccc(F)cc45)CC3)c12` ; wanted: its log10 of IC50
Reply: 0.32

Task item: So what's the measured log10 of IC50 for this one? `Cc1ccc2ccnc(N3CCN(CCCNc4cc(=O)oc5ccccc45)CC3)c2c1`
Reply: 0.98

Task item: Find the recorded log10 of IC50 belonging to `Cc1c(NCCCN2CCN(c3nccc4ccc(F)cc34)CC2)c2ccccc2oc1=O` and report it.
Reply: 1.23

====

target-or-system: DNA gyrase subunit A (Escherichia coli K-12, UniProt P0AES4)
Sequence (P0AES4 whole entry): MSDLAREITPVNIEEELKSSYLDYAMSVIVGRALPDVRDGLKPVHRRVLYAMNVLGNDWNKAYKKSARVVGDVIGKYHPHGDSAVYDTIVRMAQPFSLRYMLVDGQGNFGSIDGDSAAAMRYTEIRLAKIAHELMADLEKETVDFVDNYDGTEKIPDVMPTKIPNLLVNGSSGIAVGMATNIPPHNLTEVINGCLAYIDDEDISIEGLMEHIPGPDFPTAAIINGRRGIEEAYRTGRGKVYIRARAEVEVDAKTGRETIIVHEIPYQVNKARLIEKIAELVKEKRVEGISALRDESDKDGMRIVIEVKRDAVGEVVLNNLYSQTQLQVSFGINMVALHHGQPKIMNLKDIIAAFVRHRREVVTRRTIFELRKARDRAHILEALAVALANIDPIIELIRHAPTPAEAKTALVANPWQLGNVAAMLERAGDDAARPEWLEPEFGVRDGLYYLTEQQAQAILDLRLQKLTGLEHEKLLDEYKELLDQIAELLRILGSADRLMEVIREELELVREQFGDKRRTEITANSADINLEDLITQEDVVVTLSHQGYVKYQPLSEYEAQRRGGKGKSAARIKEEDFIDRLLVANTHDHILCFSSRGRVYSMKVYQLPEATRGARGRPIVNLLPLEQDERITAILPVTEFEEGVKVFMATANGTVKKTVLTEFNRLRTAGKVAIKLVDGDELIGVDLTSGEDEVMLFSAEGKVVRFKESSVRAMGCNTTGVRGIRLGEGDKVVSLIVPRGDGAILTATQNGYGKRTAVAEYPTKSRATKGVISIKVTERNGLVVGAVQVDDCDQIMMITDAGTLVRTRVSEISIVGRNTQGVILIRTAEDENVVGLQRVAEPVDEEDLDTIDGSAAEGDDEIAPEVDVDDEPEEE
measurement-notes: Inhibition of Escherichia coli ATCC 25922 DNA gyrase A assessed as reduction in enzyme-mediated supercoiling of relaxed pBR322 DNA by ethidium bromide staining based gel electrophoresis method
experimental-endpoint: pIC50
Remember the convention: pIC50 equals -log10 of concentration in molar.

Please review the following examples before continuing.
# mol-smiles, pIC50
measured = [
    ("O=c1cc(NCCCN2CCN(c3nccc4ccc(F)cc34)CC2)c2c(o1)CCSC2", 5.89),
    ("O=C(CCN1CCN(c2nccc3ccc(F)cc23)CC1)Nc1cc(=O)oc2ccccc12", 5.96),
    ("O=c1cc(NCCCN2CCN(c3nccc4ccc(Cl)cc34)CC2)c2ccccc2o1", 6.05),
    ("Cc1c(NCCCN2CCN(c3nccc4ccc(F)cc34)CC2)c2ccccc2oc1=O", 5.89),
    ("O=c1cc(NC[C@@H](O)CN2CCN(c3nccc4ccc(F)cc34)CC2)c2ccccc2o1", 5.96),
    ("O=c1cc(N[C@H]2C[C@@H](N3CCN(c4nccc5ccccc45)CC3)C2)c2ccccc2o1", 5.96),
    ("O=c1cc(NCCCN2CCN(c3nccc4ccccc34)CC2)c2c(o1)CCCC2", 5.12),
    ("O=c1cc(NCCCN2CCN(c3nc(F)cc4ccccc34)CC2)c2ccccc2o1", 6.05),
]

Task item: Fill in the recorded pIC50 for this compound, with DNA gyrase subunit A (Escherichia coli K-12, UniProt P0AES4) as test system: `O=c1cc(NCCCN2CCN(c3nccc4ccc(F)cc34)CC2)c2ccccc2o1`
Reply: 6.10

Task item: Param readout= pIC50; system= DNA gyrase subunit A (Escherichia coli K-12, UniProt P0AES4); entry= `O=c1cc(NCCCN2CCN(c3nccc4ccccc34)CC2)c2cc(F)ccc2o1` ; returns value.
Reply: 5.92

Task item: # get_value(readout= pIC50, system= DNA gyrase subunit A (Escherichia coli K-12, UniProt P0AES4)) for `O=c1nc(NC[C@@H](O)CN2CCN(c3nccc4ccc(F)cc34)CC2)c2ccccc2o1`
Reply: 5.82
